target: FAAH (Rattus norvegicus, UniProt P97612); construct: Preparation of Rat Brain Membranes Preparations (FAAH Enzyme Solution); from tissue; host or cells: rat cerebrum (brain membrane preparation); assay: Determination of FAAH inhibitory activity in rat (rat brain membrane preparations, [3H]-anandamide hydrolysis); type: biochemical; conditions: rat brain membrane preparations; test substance 0.1 nM to 1 μM; read-out: FAAH Inhibition IC50
Sequence (P97612 whole entry): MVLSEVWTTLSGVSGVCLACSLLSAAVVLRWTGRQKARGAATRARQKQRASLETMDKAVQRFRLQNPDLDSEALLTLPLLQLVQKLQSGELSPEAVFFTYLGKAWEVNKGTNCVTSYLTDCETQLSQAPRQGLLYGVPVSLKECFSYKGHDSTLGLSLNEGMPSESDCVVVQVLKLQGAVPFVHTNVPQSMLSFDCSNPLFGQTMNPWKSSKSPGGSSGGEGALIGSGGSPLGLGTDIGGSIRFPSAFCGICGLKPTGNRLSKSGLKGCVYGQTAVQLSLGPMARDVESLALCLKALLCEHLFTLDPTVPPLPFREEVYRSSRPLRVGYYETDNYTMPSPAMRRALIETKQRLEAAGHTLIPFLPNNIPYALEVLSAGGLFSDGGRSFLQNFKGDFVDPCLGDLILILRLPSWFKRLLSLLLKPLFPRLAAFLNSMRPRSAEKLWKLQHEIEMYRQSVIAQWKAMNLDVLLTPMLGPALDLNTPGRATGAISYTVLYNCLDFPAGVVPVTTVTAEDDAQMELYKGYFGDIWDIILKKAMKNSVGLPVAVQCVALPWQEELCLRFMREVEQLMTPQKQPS
Kindly supply the reported pIC50 values for the records listed here.
Please express pIC50 as -log10 of the molar concentration.

get_value(item= COc1ccc(Cc2ncc3c(n2)n(C)c(=O)n3C(=O)N2CCCC2)cc1 , readout=pIC50) returns 7.62

get_value(item= CCN(C)C(=O)n1c(=O)n(C)c2cnc(-c3cccc(Cl)c3)nc21 , readout=pIC50) returns 7.28

get_value(item= COCCN(C)C(=O)n1c(=O)n(C)c2nc(-c3cccc(OC)c3)ncc21 , readout=pIC50) returns 7.59

get_value(item= Cn1c(=O)n(C(=O)N2CCC2)c2cnc(COc3ccccc3Cl)nc21 , readout=pIC50) returns 7.02

get_value(item= Cn1c(=O)n(C(=O)N2CCC2)c2cnc(Cc3ccc(F)cc3)nc21 , readout=pIC50) returns 7.77

get_value(item= Cc1cc(C)cc(-c2ncc3c(n2)n(C)c(=O)n3C(=O)N2CCCC2)c1 , readout=pIC50) returns 7.15

get_value(item= Cn1c(=O)n(C(=O)N2CCC2)c2nc(CCc3ccc(F)cc3)ncc21 , readout=pIC50) returns 7.29

get_value(item= Cn1c(=O)n(C(=O)N2CCC2)c2nc(CCc3ccc(C(F)(F)F)cc3)ncc21 , readout=pIC50) returns 8.00

get_value(item= CN(C)C(=O)n1c(=O)n(C)c2cnc(CCc3cccc(F)c3)nc21 , readout=pIC50) returns 8.40

get_value(item= Cn1c(=O)n(C(=O)N2CCC2)c2nc(CCc3ccc(OCC(F)F)cc3)ncc21 , readout=pIC50) returns 7.23

###

Kindly supply the reported IC50 values for the records listed here.
molecular target: FAAH (Rattus norvegicus, UniProt P97612); construct: Preparation of Rat Brain Membranes Preparations (FAAH Enzyme Solution); from tissue; host or cells: rat cerebrum (brain membrane preparation); assay: Determination of FAAH inhibitory activity in rat (rat brain membrane preparations, [3H]-anandamide hydrolysis); assay type: biochemical; details: rat brain membrane preparations; test substance 0.1 nM to 1 μM; read-out: FAAH Inhibition IC50
Numeric only. Scale: µM

get_value(item= COc1ccc(-c2ncc3c(n2)n(C)c(=O)n3C(=O)N2CCCC2)cc1F , readout=IC50) returns 0.007

get_value(item= Cn1c(=O)n(C(=O)N2CCN(c3ccc(C(F)(F)F)cc3)CC2)c2cnc(-c3ccccc3)nc21 , readout=IC50) returns 0.007

get_value(item= CCOc1ccc(C2CN(C(=O)n3c(=O)n(C)c4nc(COC)ncc43)C2)cc1 , readout=IC50) returns 0.01

get_value(item= CN(C)C(=O)n1c(=O)n(C)c2cnc(CCc3ccc(OC(F)F)cc3)nc21 , readout=IC50) returns 0.027

get_value(item= COc1cccc(-c2ncc3c(n2)n(C)c(=O)n3C(=O)N2CCOCC2)c1 , readout=IC50) returns 0.062

get_value(item= COCc1ncc2c(n1)n(C)c(=O)n2C(=O)N1CC(c2ccc(C)cc2)C1 , readout=IC50) returns 0.039

get_value(item= CCOc1cccc(CCc2ncc3c(n2)n(C(=O)N(C)C)c(=O)n3C)c1 , readout=IC50) returns 0.131

get_value(item= C/C=C/c1ncc2c(n1)n(C)c(=O)n2C(=O)N1CCCC1 , readout=IC50) returns 0.027

get_value(item= Cn1c(=O)n(C(=O)N2CCC2)c2nc(CCCOc3ccccc3)ncc21 , readout=IC50) returns 0.098

get_value(item= COCc1ncc2c(n1)n(C)c(=O)n2C(=O)N1CC[C@@H](Oc2cccc(Cl)c2)C1 , readout=IC50) returns 0.015

get_value(item= CN(C)C(=O)n1c(=O)n(C)c2cnc(CCc3cccc(C4CC4)c3)nc21 , readout=IC50) returns 0.01

get_value(item= Cn1c(=O)n(C(=O)N2CCC2)c2cnc(COc3ccc(F)cc3)nc21 , readout=IC50) returns 0.01

get_value(item= COc1cccc(CCc2ncc3c(n2)n(C(=O)N(C)C)c(=O)n3C)c1 , readout=IC50) returns 0.067

get_value(item= CCCOc1cccc(CCc2ncc3c(n2)n(C(=O)N(C)C)c(=O)n3C)c1 , readout=IC50) returns 0.075

get_value(item= Cc1cccc(-c2ncc3c(n2)n(C(=O)N(C)C)c(=O)n3C)c1 , readout=IC50) returns 0.082

get_value(item= COCc1ncc2c(n1)n(C)c(=O)n2C(=O)N1CC[C@H](Oc2ccc(C)cc2)C1 , readout=IC50) returns 0.009

get_value(item= CCN(C)C(=O)n1c(=O)n(C)c2nc(Cc3cccc(F)c3)ncc21 , readout=IC50) returns 0.003

get_value(item= CN(CCOc1ccc(Cl)cc1)C(=O)n1c(=O)n(C)c2nc(-c3ccncc3)ncc21 , readout=IC50) returns 0.0005

get_value(item= CN(C)C(=O)n1c(=O)n(C)c2cnc(-c3cccc(OCC(F)(F)F)c3)nc21 , readout=IC50) returns 0.02

get_value(item= Cc1cncc(-c2ncc3c(n2)n(C)c(=O)n3C(=O)N2CCCC2)c1 , readout=IC50) returns 0.054

get_value(item= CCOc1ccc(N2CCN(C(=O)n3c(=O)n(C)c4nc(-c5cccc(OC)c5)ncc43)CC2)cc1 , readout=IC50) returns 0.004

get_value(item= COc1cccc(-c2ncc3c(n2)n(C)c(=O)n3C(=O)N2CCN(c3cccc(C)c3)CC2)c1 , readout=IC50) returns 0.006

get_value(item= Cc1cc(F)cc(-c2ncc3c(n2)n(C)c(=O)n3C(=O)N2CCCC2)c1 , readout=IC50) returns 0.026

get_value(item= COc1cccc(-c2ncc3c(n2)n(C)c(=O)n3C(=O)N(C)Cc2ccc(Cl)cc2)c1 , readout=IC50) returns 0.01

get_value(item= COCc1ncc2c(n1)n(C)c(=O)n2C(=O)N1CC[C@H](Oc2cccc(F)c2)C1 , readout=IC50) returns 0.01

get_value(item= COc1cccc(-c2ncc3c(n2)n(C)c(=O)n3C(=O)N(C)Cc2ccc(OC(F)(F)F)cc2)c1 , readout=IC50) returns 0.025

get_value(item= COc1cccc(Cc2ncc3c(n2)n(C)c(=O)n3C(=O)N2CCC2)c1 , readout=IC50) returns 0.024

# credit: patent US8735406B2
